Assay: qHTS Assay for Modulators of miRNAs and/or Inhibitors of miR-21; also: potency is read from the fitted curve at half-maximal effect; nearly all actives have a fitted effect of over 55% in size
Conditions: HeLa miR-21-FLuc reporter, luciferase luminescence, 48 h; actives lower the signal
In all, about 340,000 compounds went through this assay and about 3,300 (0.97%) were called active. Inconclusive results (about 9%) are left out. The list shows a part of the results.
Reported Potency values for a set of compounds

- Compound: "COc1ccc(-c2coc3cc(O)ccc3c2=O)cc1OC"
  Potency: "13.1 µM (active)"
- Compound: "O=c1c(-c2ccccc2)coc2cc(O)ccc12"
  Potency: "1.85 µM (active)"
- Compound: "COc1cc(NC(=O)c2c(OC)cccc2OC)ccc1NC(=O)c1cc2ccccc2o1"
  Potency: "5.21 µM (active)"
- Compound: "NC(=O)c1ccccc1NC(=O)c1ccc(-c2ccc(Br)cc2)o1"
  Potency: "1.17 µM (active)"
- Compound: "O=C(COc1ccc(Br)cc1Br)NC(=S)Nc1cccc(CO)c1"
  Potency: "1.65 µM (active)"
- Compound: "CC(C)Oc1ccc2c(=O)c(-c3ccccc3)coc2c1"
  Potency: "0.464 µM (active)"
- Compound: "Cc1nnc(SCc2ccccc2Cl)c2cc3occc3n12"
  Potency: "11.7 µM (active)"
- Compound: "O=C(COc1ccc2ccccc2c1Br)NC(=S)Nc1cccc(CO)c1"
  Potency: "20.7 µM (active)"
- Compound: "CCC(=O)Nc1cccc(NC(=S)NC(=O)c2cc3ccccc3o2)c1"
  Potency: "0.585 µM (active)"
- Compound: "O=C(NC(=S)Nc1ccccc1C(=O)O)c1ccc(-c2ccc(Br)cc2)o1"
  Potency: "11.7 µM (active)"
- Compound: "O=C(Nc1cc2c(cc1Cl)OCCCO2)c1ccco1"
  Potency: "3.69 µM (active)"
- Compound: "O=C(NNC(=S)Nc1ccc(Br)cc1Cl)c1ccco1"
  Potency: "3.29 µM (active)"

---

Assay: qHTS Assay for Modulators of miRNAs and/or Inhibitors of miR-21; also: potency is read from the fitted curve at half-maximal effect; nearly all actives have a fitted effect of over 55% in size
Settings: HeLa miR-21-FLuc reporter, luciferase luminescence, 48 h; actives lower the signal
Among all 340,000 compounds or so, about 3,300 (0.97%) were called active. Roughly 9% stayed inconclusive and do not appear here. The list shows a part of the results.

- Compound: "O=C(O)c1ccc(N/N=C/c2ccc(-c3ccccc3Cl)o2)cc1"
  Potency: "0.293 µM (active)"
- Compound: "O=C(NC(=S)Nc1ccc2c(c1)C(=O)c1ccccc1C2=O)c1ccc(F)cc1"
  Potency: "2.93 µM (active)"
- Compound: "Cc1nn(C)cc1/C=C/C(=O)c1cccs1"
  Potency: "13.1 µM (active)"
- Compound: "Cc1ccc(-n2nc3cc(C)c(NC(=S)NC(=O)/C=C/c4ccco4)cc3n2)cc1"
  Potency: "3.69 µM (active)"
- Compound: "Cc1cc(C)n2nc(-c3ccc(Cl)cc3)cc2n1"
  Potency: "1.17 µM (active)"
- Compound: "Cc1nn(-c2ccccc2)c(N)c1-c1ccccc1"
  Potency: "6.56 µM (active)"
- Compound: "Cc1c(/C=C/C(=O)c2cccs2)cnn1C"
  Potency: "14.7 µM (active)"
- Compound: "CC(=O)c1ccc(NS(=O)(=O)c2cccc(C)c2)cc1"
  Potency: "11.7 µM (active)"
- Compound: "Cc1cc(C(=O)COC(=O)c2ccc(O)cc2)c(C)n1Cc1ccco1"
  Potency: "1.85 µM (active)"
- Compound: "c1ccc(NCC2OCc3ccccc3CO2)cc1"
  Potency: "4.65 µM (active)"
- Compound: "Cc1ccc2nc(-c3ccc(NS(=O)(=O)c4ccc(F)cc4)cc3)sc2c1"
  Potency: "6.56 µM (active)"
- Compound: "Fc1ccc(OCc2cc(-c3ccccc3)no2)cc1"
  Potency: "4.14 µM (active)"
- Compound: "Cc1cccc(C)c1Nc1nnc(SCc2nc3ccccc3s2)s1"
  Potency: "4.65 µM (active)"
- Compound: "N#Cc1ccc(C(=O)NC2CCCCCCC2)cc1"
  Potency: "5.85 µM (active)"
- Compound: "Cc1ccsc1/C=C1\\CCC(C2CCCC2)C1=O (centres undefined)"
  Potency: "3.69 µM (active)"
- Compound: "Cc1cccc(S(=O)(=O)Nc2ccc(-c3nc4ccc(C)cc4s3)cc2)c1"
  Potency: "2.07 µM (active)"
- Compound: "CCOC(=O)Cc1ccc2sc(-c3ccccc3)nc2c1"
  Potency: "1.17 µM (active)"
- Compound: "c1ccc2c(c1)oc1c(Nc3ccc4c(c3)OCO4)ncnc12"
  Potency: "1.65 µM (active)"
- Compound: "COc1cc(C(F)(F)F)ccc1C(=O)NCCc1ccco1"
  Potency: "7.36 µM (active)"
- Compound: "COc1cc(-c2cc(=O)c3c(O)cc(O)cc3o2)ccc1O"
  Potency: "4.14 µM (active)"
- Compound: "O=C(NC1CCCCC1)c1ccc2c(c1)OCCO2"
  Potency: "2.93 µM (active)"
- Compound: "COc1ccc(-c2cc(COc3ccccc3)on2)cc1"
  Potency: "9.27 µM (active)"
- Compound: "Cc1ccc2c3c([nH]c2c1C)-c1nonc1CC3"
  Potency: "7.36 µM (active)"
- Compound: "Cc1nn(-c2cccc([N+](=O)[O-])c2)c(N)c1-c1ccccc1"
  Potency: "4.14 µM (active)"
- Compound: "O=C(NCC1CCCO1)c1cc(-c2ccccc2F)no1 (centres undefined)"
  Potency: "14.7 µM (active)"
- Compound: "Cc1cc(SCC(=O)Nc2nsc(-c3ccc(C(C)(C)C)cc3)n2)nc2ccccc12"
  Potency: "2.33 µM (active)"
- Compound: "Cc1ccc2nc(/C=C/c3cccc(F)c3)ccc2c1"
  Potency: "0.521 µM (active)"
- Compound: "O=C(NNc1ncnc2ccccc12)c1cccc(Cl)c1"
  Potency: "0.927 µM (active)"
- Compound: "CCc1nc2ccc(C(=O)NCCc3ccco3)cc2nc1CC"
  Potency: "14.7 µM (active)"
- Compound: "CCOc1ncccc1C(=O)OCC(=O)c1cc(C)n(Cc2ccco2)c1C"
  Potency: "2.07 µM (active)"
- Compound: "CN1/C(=C\\C(=O)c2cccc([N+](=O)[O-])c2)Sc2ccccc21"
  Potency: "0.329 µM (active)"
- Compound: "COc1cc(-c2cc(=O)c3ccccc3o2)ccc1O"
  Potency: "8.26 µM (active)"
- Compound: "CSCc1ccc(C(=O)Nc2ccc(C(N)=O)cc2)cc1"
  Potency: "1.65 µM (active)"
- Compound: "COc1ccc(-c2cc3ccc(O)cc3oc2=O)cc1OC"
  Potency: "18.5 µM (active)"
- Compound: "O=C(NC1CC1)c1ccc(-c2ccccc2)cc1"
  Potency: "3.69 µM (active)"
- Compound: "COc1cccc(/C=C2\\CCC(C3CCCC3)C2=O)c1OC (centres undefined)"
  Potency: "4.14 µM (active)"
- Compound: "O=C(NNC(=S)Nc1ccccc1)c1cccs1"
  Potency: "2.07 µM (active)"
- Compound: "COc1ccc(-c2cc3ccc(OCC(C)=O)cc3oc2=O)cc1OC"
  Potency: "3.69 µM (active)"
- Compound: "C=CCn1c(C)cc(C(=O)COC(=O)c2ccc(N)c([N+](=O)[O-])c2)c1C"
  Potency: "1.85 µM (active)"
- Compound: "CN(C(=O)c1cc(-c2ccccc2)on1)C1CCCCC1"
  Potency: "2.07 µM (active)"
- Compound: "COc1ccc(-c2c(C)c3ccc(O)cc3oc2=O)cc1"
  Potency: "9.27 µM (active)"
- Compound: "COc1ccc(-c2cc3nc(C)cc(C)n3n2)cc1"
  Potency: "3.29 µM (active)"
- Compound: "CS(=O)c1ccccc1-c1nc(-c2ccc(Cl)cc2)no1 (centres undefined)"
  Potency: "6.56 µM (active)"
- Compound: "CCOc1ccc2c(c1)c(N=Nc1cccc(C(=O)O)c1)c(O)n2C"
  Potency: "6.56 µM (active)"
- Compound: "Cc1nn(-c2nc3ccccc3[nH]2)c(N)c1-c1ccccc1"
  Potency: "0.414 µM (active)"
- Compound: "CC(C)Sc1ncnc2c1cnn2-c1ccccc1"
  Potency: "2.61 µM (active)"
- Compound: "S=C(N=Nc1ccccc1)NNc1ccccc1"
  Potency: "5.21 µM (active)"
- Compound: "N#C/C(=C\\c1cccs1)C(=O)Nc1nccs1"
  Potency: "7.36 µM (active)"
- Compound: "Cc1cc(C(=O)COC(=O)c2cc(Cl)ccc2N)c(C)n1Cc1ccco1"
  Potency: "2.93 µM (active)"
